Target: Voltage-gated inwardly rectifying potassium channel KCNH2 (Homo sapiens)
Sequence (Q12809 whole entry): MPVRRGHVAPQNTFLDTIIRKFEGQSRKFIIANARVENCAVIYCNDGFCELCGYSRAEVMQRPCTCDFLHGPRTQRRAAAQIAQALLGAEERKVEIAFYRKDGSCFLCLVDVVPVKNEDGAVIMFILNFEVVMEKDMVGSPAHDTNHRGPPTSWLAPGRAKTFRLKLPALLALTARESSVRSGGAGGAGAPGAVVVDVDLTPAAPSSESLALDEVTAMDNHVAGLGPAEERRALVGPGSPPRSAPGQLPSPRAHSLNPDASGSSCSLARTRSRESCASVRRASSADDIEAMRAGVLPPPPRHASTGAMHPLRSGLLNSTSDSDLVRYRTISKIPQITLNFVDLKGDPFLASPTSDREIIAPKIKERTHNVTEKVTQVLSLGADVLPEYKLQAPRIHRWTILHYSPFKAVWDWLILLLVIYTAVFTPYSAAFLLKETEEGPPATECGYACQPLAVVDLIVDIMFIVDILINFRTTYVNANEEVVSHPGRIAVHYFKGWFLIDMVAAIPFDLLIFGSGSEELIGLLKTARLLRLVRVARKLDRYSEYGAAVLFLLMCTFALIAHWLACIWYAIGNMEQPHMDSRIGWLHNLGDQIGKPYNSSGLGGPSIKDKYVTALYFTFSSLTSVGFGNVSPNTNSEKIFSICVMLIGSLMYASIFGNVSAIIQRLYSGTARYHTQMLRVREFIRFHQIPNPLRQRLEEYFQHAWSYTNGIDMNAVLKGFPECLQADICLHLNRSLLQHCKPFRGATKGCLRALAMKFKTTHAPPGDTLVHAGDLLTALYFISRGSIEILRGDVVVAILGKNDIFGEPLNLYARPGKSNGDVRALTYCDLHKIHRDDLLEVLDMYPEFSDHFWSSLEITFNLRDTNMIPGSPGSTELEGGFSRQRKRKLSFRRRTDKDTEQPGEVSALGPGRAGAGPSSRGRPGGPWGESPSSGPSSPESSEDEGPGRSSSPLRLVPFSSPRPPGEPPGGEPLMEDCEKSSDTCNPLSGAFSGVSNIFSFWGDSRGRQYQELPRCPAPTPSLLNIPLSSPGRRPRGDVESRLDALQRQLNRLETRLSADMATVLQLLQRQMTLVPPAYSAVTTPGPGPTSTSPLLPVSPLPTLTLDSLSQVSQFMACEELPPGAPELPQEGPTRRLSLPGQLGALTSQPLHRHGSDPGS
Experiment: Inhibition of hERG expressed in CHO cells by manual patch-clamp assay
pIC50: −log10 of the molar value.

{"compound": "C[C@@H](Nc1nc(N[C@H](C)C(F)(F)F)nc(C2=C(F)[C@H](O)C(F)(F)CC2)n1)C(F)(F)F [RANOSIDENIB]", "assay system": "Voltage-gated inwardly rectifying potassium channel KCNH2 (Homo sapiens)", "pIC50": "< 4.52"}

---

Experiment: Inhibition of IDH2 R140Q mutant in human U-87 MG cells incubated for 72 hrs by measuring 2-HG production by fluorescence based analysis
Assay type: functional, cell-based, U-87MG ATCC
Conditions: u-87mg atcc
Catalogue of molecules with associated IC50

{"molecule": "C[C@@H](Nc1nc(N[C@H](C)C(F)(F)F)nc(C2=C(F)C(O)C(F)(F)CC2)n1)C(F)(F)F (mixture of isomers)", "IC50 [nM]": 94}
{"molecule": "C[C@@H](Nc1nc(N[C@H](C)C(F)(F)F)nc(C2=C(F)C(O)C(F)(F)CC2)n1)C(F)(F)F (stereo in doubt; 42)", "IC50 [nM]": 845}

---

Assay: AUC(0 to infinity) in male ICR mouse at 10 mg/kg, po measured after 8 hrs by LC/MS/MS analysis
Format: ADME, organism-based
Settings: in vivo
Quick list: AUC(0-inf) per entry.

{"molecule": "C[C@@H](Nc1nc(N[C@H](C)C(F)(F)F)nc(C2=C(F)[C@H](O)C(F)(F)CC2)n1)C(F)(F)F [RANOSIDENIB]", "AUC(0-inf) [ng·h/mL]": 62000}
{"molecule": "CC(C)(O)CNc1nc(Nc2ccnc(C(F)(F)F)c2)nc(-c2cccc(C(F)(F)F)n2)n1 [ENASIDENIB]", "AUC(0-inf) [ng·h/mL]": 23000}
{"molecule": "C[C@@H](Nc1nc(N[C@H](C)C(F)(F)F)nc(C2=C(F)[C@@H](O)CCC2)n1)C(F)(F)F", "AUC(0-inf) [ng·h/mL]": 15800}
{"molecule": "N#Cc1ccnc(N2C(=O)CC[C@H]2C(=O)N(c2cncc(F)c2)[C@H](C(=O)NC2CC(F)(F)C2)c2ccccc2Cl)c1 [IVOSIDENIB]", "AUC(0-inf) [ng·h/mL]": 7100}

---

Test: Inhibition of IDH1 R132H mutant in human U-87 MG cells incubated for 72 hrs by measuring 2-HG production by fluorescence based analysis
Assay type: functional, cell-based, U-87MG ATCC
Details: Homo sapiens, U-87 MG, 72 h
pIC50: −log10 of the molar value.
Each entry below carries its recorded pIC50.

{"compound": "C[C@@H](Nc1nc(N[C@H](C)C(F)(F)F)nc(C2=C(F)C(O)C3(CC2)CC3)n1)C(F)(F)F (mixture of isomers)", "pIC50": 5.49}
{"compound": "C[C@H](Nc1nc(N[C@H](C)C(F)(F)F)nc(C2=C(F)C(O)C(F)(F)CC2)n1)C(F)(F)F (some centres undefined)", "pIC50": 5.99}
{"compound": "C[C@H](Nc1nc(N[C@@H](C)C(F)(F)F)nc(C2=C(F)C(O)C(F)(F)CC2)n1)C(F)(F)F (mixture of isomers)", "pIC50": 5.88}
{"compound": "C[C@@H](Nc1nc(N[C@H](C)C(F)(F)F)nc(C2=CC(O)CCC2)n1)C(F)(F)F (mixture of isomers)", "pIC50": 6.36}

---

Assay: Apparent permeability across apical to basolateral side in human Caco-2 cells at 10 uM incubated for 1 hrs by LC-MS/MS analysis
measure name: Papp A→B at 1 h, 10 µM (×10⁻⁶ cm/s)

{"molecule": "C[C@@H](Nc1nc(N[C@H](C)C(F)(F)F)nc(C2=C(F)[C@H](O)C(F)(F)CC2)n1)C(F)(F)F", "measure name": "Papp A→B at 1 h, 10 µM", "observed value": 53.3}
{"molecule": "CC(C)Nc1nc(N[C@H](C)C(F)(F)F)nc(C2=CCCCC2)n1", "measure name": "Papp A→B at 1 h, 10 µM", "observed value": 0.9}
{"molecule": "CC(C)Nc1nc(N[C@H](C)C(F)(F)F)nc(C2=C[C@@H](O)CCC2)n1", "measure name": "Papp A→B at 1 h, 10 µM", "observed value": 55.4}
{"molecule": "C[C@@H](Nc1nc(N[C@H](C)C(F)(F)F)nc(C2=C(F)C(O)C(F)(F)CC2)n1)C(F)(F)F (mixture of isomers)", "measure name": "Papp A→B at 1 h, 10 µM", "observed value": 50.4}
{"molecule": "CC(C)Nc1nc(N[C@H](C)C(F)(F)F)nc(C2=CC(F)CCC2)n1 (mixture of isomers)", "measure name": "Papp A→B at 1 h, 10 µM", "observed value": 5.1}
{"molecule": "C[C@@H](Nc1nc(NC2CCCC2)nc(C2=CC(O)CCC2)n1)C(F)(F)F (mixture of isomers)", "measure name": "Papp A→B at 1 h, 10 µM", "observed value": 30.9}
{"molecule": "CC(C)Nc1nc(N[C@H](C)C(F)(F)F)nc(C2=CC(O)CCC2)n1 (mixture of isomers)", "measure name": "Papp A→B at 1 h, 10 µM", "observed value": 53.3}
{"molecule": "CC(C)Nc1nc(N[C@H](C)C(F)(F)F)nc(C2=CC(F)(F)CCC2)n1", "measure name": "Papp A→B at 1 h, 10 µM", "observed value": 2.2}
{"molecule": "C[C@@H](Nc1nc(NC2CCC2)nc(C2=CC(O)CCC2)n1)C(F)(F)F (mixture of isomers)", "measure name": "Papp A→B at 1 h, 10 µM", "observed value": 41.4}
{"molecule": "C[C@@H](Nc1nc(N[C@H](C)C(F)(F)F)nc(C2=C(F)[C@H](O)CCC2)n1)C(F)(F)F", "measure name": "Papp A→B at 1 h, 10 µM", "observed value": 60}
{"molecule": "C[C@@H](Nc1nc(N[C@H](C)C(F)(F)F)nc(C2=C(F)C(O)CCC2)n1)C(F)(F)F (mixture of isomers)", "measure name": "Papp A→B at 1 h, 10 µM", "observed value": 68.6}
{"molecule": "C[C@@H](Nc1nc(N[C@H](C)C(F)(F)F)nc(C2=C(F)[C@@H](O)CCC2)n1)C(F)(F)F", "measure name": "Papp A→B at 1 h, 10 µM", "observed value": 46.8}
{"molecule": "C[C@@H](Nc1nc(N[C@H](C)C(F)(F)F)nc(C2=CC(O)CCC2)n1)C(F)(F)F (mixture of isomers)", "measure name": "Papp A→B at 1 h, 10 µM", "observed value": 44.9}

---

Target: UGT1A1 (Homo sapiens, UniProt P22309)
Sequence (P22309 whole entry): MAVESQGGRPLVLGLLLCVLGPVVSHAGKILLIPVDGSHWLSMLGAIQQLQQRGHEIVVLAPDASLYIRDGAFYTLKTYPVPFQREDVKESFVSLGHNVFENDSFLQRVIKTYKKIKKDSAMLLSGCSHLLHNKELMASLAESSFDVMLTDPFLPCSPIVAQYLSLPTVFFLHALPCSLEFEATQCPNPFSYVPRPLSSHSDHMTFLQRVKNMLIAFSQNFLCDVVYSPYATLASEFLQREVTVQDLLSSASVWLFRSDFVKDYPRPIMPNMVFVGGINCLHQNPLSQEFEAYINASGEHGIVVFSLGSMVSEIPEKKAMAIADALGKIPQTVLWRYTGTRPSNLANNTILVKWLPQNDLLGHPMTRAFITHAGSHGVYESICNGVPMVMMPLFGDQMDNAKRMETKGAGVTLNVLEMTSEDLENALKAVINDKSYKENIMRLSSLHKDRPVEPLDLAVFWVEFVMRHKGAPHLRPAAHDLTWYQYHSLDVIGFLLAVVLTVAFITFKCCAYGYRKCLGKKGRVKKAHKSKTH
Test: Inhibition of UGT1A1 (unknown origin) at 10 uM relative to control
Type: ADME
measure name: inhibition at 10 µM

{"molecule": "CC(C)(O)CNc1nc(Nc2ccnc(C(F)(F)F)c2)nc(-c2cccc(C(F)(F)F)n2)n1 [ENASIDENIB]", "observed value": "76.1%"}
{"molecule": "C[C@@H](Nc1nc(N[C@H](C)C(F)(F)F)nc(C2=C(F)[C@H](O)C(F)(F)CC2)n1)C(F)(F)F [RANOSIDENIB]", "observed value": "46.7%"}

---

Experiment: Inhibition of IDH2 R140Q mutant in human TF-1 cells incubated for 72 hrs by measuring 2-HG production by fluorescence based analysis
Assay type: functional, cell-based
Conditions: TF-1, 72 h

{"entry smiles": "CC(C)(O)CNc1nc(Nc2ccnc(C(F)(F)F)c2)nc(-c2cccc(C(F)(F)F)n2)n1", "IC50": "55 nM"}
{"entry smiles": "C[C@@H](Nc1nc(N[C@H](C)C(F)(F)F)nc(C2=C(F)[C@H](O)C(F)(F)CC2)n1)C(F)(F)F", "IC50": "21 nM"}

---

Assay: Oral bioavailability in male Sprague-Dawley rat at 5 mg/kg measured after 24 hrs by LC/MS/MS analysis
Format: ADME, organism-based
Settings: in vivo

{"compound": "C[C@@H](Nc1nc(N[C@H](C)C(F)(F)F)nc(C2=C(F)[C@H](O)C(F)(F)CC2)n1)C(F)(F)F [RANOSIDENIB]", "bioavailability (%)": 113}

---

Assay: Clearance in male ICR mouse at 2.5 mg/kg, iv measured after 8 hrs by LC/MS/MS analysis
Format: ADME, organism-based
Details: in vivo
Reported clearance values follow for various molecules

{"entry smiles": "C[C@@H](Nc1nc(N[C@H](C)C(F)(F)F)nc(C2=C(F)[C@H](O)C(F)(F)CC2)n1)C(F)(F)F", "unit tag": "mL/min/kg", "clearance": 3.3}
{"entry smiles": "N#Cc1ccnc(N2C(=O)CC[C@H]2C(=O)N(c2cncc(F)c2)[C@H](C(=O)NC2CC(F)(F)C2)c2ccccc2Cl)c1", "unit tag": "mL/min/kg", "clearance": 15.2}
{"entry smiles": "C[C@@H](Nc1nc(N[C@H](C)C(F)(F)F)nc(C2=C(F)[C@@H](O)CCC2)n1)C(F)(F)F", "unit tag": "mL/min/kg", "clearance": 14.1}
{"entry smiles": "CC(C)(O)CNc1nc(Nc2ccnc(C(F)(F)F)c2)nc(-c2cccc(C(F)(F)F)n2)n1", "unit tag": "mL/min/kg", "clearance": 6.9}
